Value source: patent US11447466B2

molecular target: UniProt:Q9NR96; assay: TLR9 inhibition reporter assay (HEK-Blue SEAP reporter, ODN2006 stimulation); settings: HEK-Blue cells overexpressing human TLR9, SEAP reporter, ODN2006 5 nM, 22 hour incubation
Sequence (Q9NR96 26-1032): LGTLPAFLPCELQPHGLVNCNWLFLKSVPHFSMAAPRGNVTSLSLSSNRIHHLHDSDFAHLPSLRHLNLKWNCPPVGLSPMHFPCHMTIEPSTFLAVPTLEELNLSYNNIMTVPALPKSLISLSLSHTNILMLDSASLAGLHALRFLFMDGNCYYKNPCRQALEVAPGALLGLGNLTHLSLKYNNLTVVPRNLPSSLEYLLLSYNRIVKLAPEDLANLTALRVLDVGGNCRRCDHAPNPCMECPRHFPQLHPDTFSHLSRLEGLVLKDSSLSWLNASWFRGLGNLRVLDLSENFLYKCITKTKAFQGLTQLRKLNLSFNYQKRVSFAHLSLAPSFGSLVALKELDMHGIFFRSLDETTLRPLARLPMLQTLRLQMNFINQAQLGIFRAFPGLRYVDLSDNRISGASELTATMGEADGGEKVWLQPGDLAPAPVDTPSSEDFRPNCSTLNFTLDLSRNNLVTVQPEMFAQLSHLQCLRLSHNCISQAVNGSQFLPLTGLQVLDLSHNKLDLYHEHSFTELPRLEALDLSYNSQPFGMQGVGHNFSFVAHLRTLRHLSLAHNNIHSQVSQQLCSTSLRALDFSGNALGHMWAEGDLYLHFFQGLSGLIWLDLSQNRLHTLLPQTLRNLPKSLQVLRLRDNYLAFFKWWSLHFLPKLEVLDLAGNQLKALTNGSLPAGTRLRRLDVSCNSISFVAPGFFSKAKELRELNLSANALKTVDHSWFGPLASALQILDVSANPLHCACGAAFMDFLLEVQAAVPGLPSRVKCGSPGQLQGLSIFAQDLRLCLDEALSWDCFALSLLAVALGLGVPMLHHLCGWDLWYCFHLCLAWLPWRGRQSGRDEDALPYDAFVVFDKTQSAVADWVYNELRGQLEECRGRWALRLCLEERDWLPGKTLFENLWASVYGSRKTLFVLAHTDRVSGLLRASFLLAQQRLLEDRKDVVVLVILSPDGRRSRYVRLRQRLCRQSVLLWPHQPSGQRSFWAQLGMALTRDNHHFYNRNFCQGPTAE
So basically, if IC50 comes in under 3000 nM it's met, and if it's 3000 nM or more it's not met.

Compound: Cc1nc(-c2[nH]c3ccc(C4CCN(CC(C)(C)O)CC4)cc3c2C(C)C)cn(C)c1=O
Class Name: not met

Compound: CNC(=O)CN1CCC(c2ccc3[nH]c(-c4cn(C)c(=O)c(Cl)c4C)c(C(C)C)c3c2)CC1
Class Name: not met

Compound: CC(C)c1c(-c2cc(-c3cncnc3)c(=O)n(C)c2)[nH]c2ccc(C3CCN(C)CC3)cc12
Class Name: met

Compound: Cc1c(-c2[nH]c3ccc(C4CCN(CC(C)C)CC4)cc3c2C(C)C)cn(C)c(=O)c1Cl
Class Name: met

Compound: CCCN1CCC(c2ccc3[nH]c(-c4cc(-c5cnc(C(F)(F)F)nc5)c(=O)n(C)c4)c(C(C)C)c3c2)CC1
Class Name: met

Compound: COc1cc(-c2[nH]c3ccc(C4CCN(C(=O)CN(C)C)CC4)cc3c2C(C)C)c(C)n(C)c1=O
Class Name: not met

Compound: Cc1cc(-c2[nH]c3ccc(C4CCN(C5CCC(C(C)(C)O)CC5)CC4)cc3c2C(C)C)cn(C)c1=O (stereo not shown) [Example 268]
Class Name: met
